Entry source: PubChem BioAssay AID1159580

normalized growth values, listed per item
- assay-method-text: chemical genetic growth profiling, strain panel (AID 1159580);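 further: tested at 20 µM; growth read once vehicle control cultures reached saturation at 30 °C; 1 = growth at the plate median or of vehicle wells; lower values mean less growth of the strain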
- reported-conditions: S. cerevisiae deletion strains, growth OD, locus YMR219W, strain ESC1, stronger effect = lower value
The campaign covered roughly 5,500 compounds. About 2,000 (36%) were called active. Not shown: some 18% with an inconclusive outcome. Some of the results follow.
value-kind: normalized growth

molecule	value-kind	reported-measurement
Cc1noc(N)c1C(N)=S	normalized growth	1.01
O=C(O/N=C\c1ccc2c(c1)OCO2)c1ccccc1Br	normalized growth	0.959
O=[N+]([O-])c1cnc(Sc2n[nH]c(-c3cccs3)n2)s1	normalized growth	0.35
O=C(O)c1ccc(N=Cc2ccc3c(c2)OCO3)cc1	normalized growth	0.988
Cc1noc(C)c1NC(N)=O	normalized growth	0.993
CC(C)(C)OC(=O)C(C)(C)S(=O)(=O)c1ccc(Cl)cc1	normalized growth	0.995
O=C(Nc1ccc(Br)cc1Cl)C(Cl)(Cl)Cl	normalized growth	0.955
O=C(Nc1ccc(Cl)c(Cl)c1)c1ccccc1	normalized growth	0.895
C=C1SC(=Nc2cccc(OC)c2)N(C(=O)C(c2ccccc2)C2CCCC2)C1(C)C (configuration not stated)	normalized growth	1
O=C(NC1CCN(Cc2ccc(Cl)c(Cl)c2)CC1)c1ccccc1	normalized growth	0.992
Cc1cccc(NC(=S)NCc2ccncc2)c1	normalized growth	1.01
Cc1noc(C)c1-c1nc(-c2cc(C(F)(F)F)cc(C(F)(F)F)c2)no1	normalized growth	0.998
